- methodDescription: Pharmacokinetic test in mice (Effect Example 3)
- Type: in vivo
- assayContext: mouse, plasma, po; male mice, single gavage, 25 mg/kg
measuredParameter: AUC(0-t) (ng·h/mL)
Lab book: enter the figure in ng·h/mL, no units written.

-- ask Dear colleague, please send me the reported AUC(0-t) for O=C(NS(=O)(=O)c1ccc(NC[C@H]2COCCO2)c([N+](=O)[O-])c1)c1ccc(N2CCN(CC3=C(c4ccc(Cl)cc4)CC4(CCC4)CC3)CC2)cc1Oc1cnc2[nH]ccc2c1 when you can.
-- reply 384

###

- methodDescription: Pharmacokinetic test in mice (Effect Example 3)
- Format: in vivo
- assayContext: mouse, plasma, po; male mice, single gavage, 100 mg/kg
- Description: Four groups of male mice were randomly divided into two groups: test article 1 (solid dispersion prepared in Example 7 and suspension prepared with reverse osmosis water as solvent), the dosages are 25 mg/kg and 100 mg/kg respectively; test article 2 (API prepared in example 1 and suspension prepared with aqueous solution containing 0.2% HPMC-E5), the dosages are 25 mg/kg and 100 mg/kg, respectively. The animals in each group were administered by single gavage. […]
measuredParameter: AUC(0-inf) (ng·h/mL)
Lab book: enter the figure in ng·h/mL, no units written.

-- ask Dear colleague, please send me the reported AUC(0-inf) for O=C(NS(=O)(=O)c1ccc(NC[C@H]2COCCO2)c([N+](=O)[O-])c1)c1ccc(N2CCN(CC3=C(c4ccc(Cl)cc4)CC4(CCC4)CC3)CC2)cc1Oc1cnc2[nH]ccc2c1 when you can.
-- reply 1120

###

- methodDescription: Solubility in aqueous medium pH 1-7
- Format: physicochemical
- assayContext: aqueous buffer, thermodynamic from solid, 37° C. for 24 hours, acidic or neutral medium pH 1-7
measuredParameter: solubility at 24 h

-- ask Dear colleague, please send me the reported solubility at 24 h for O=C(NS(=O)(=O)c1ccc(NC[C@H]2COCCO2)c([N+](=O)[O-])c1)c1ccc(N2CCN(CC3=C(c4ccc(Cl)cc4)CC4(CCC4)CC3)CC2)cc1Oc1cnc2[nH]ccc2c1 when you can.
-- reply 0.3 to 0.6 µg/mL

###

- methodDescription: Pharmacokinetic test in mice (Effect Example 3)
- Assay type: in vivo
- assayContext: mouse, plasma, po; male mice, single gavage, 25 mg/kg
measuredParameter: half-life (h)
Lab book: enter the figure in h, no units written.

-- ask Dear colleague, please send me the reported half-life for O=C(NS(=O)(=O)c1ccc(NC[C@H]2COCCO2)c([N+](=O)[O-])c1)c1ccc(N2CCN(CC3=C(c4ccc(Cl)cc4)CC4(CCC4)CC3)CC2)cc1Oc1cnc2[nH]ccc2c1 when you can.
-- reply 7.41

###

- methodDescription: Pharmacokinetic test in mice (Effect Example 3)
- Type: in vivo
- assayContext: mouse, plasma, po; male mice, single gavage, 25 mg/kg
measuredParameter: Tmax (h)
Lab book: enter the figure in h, no units written.

-- ask Dear colleague, please send me the reported Tmax for O=C(NS(=O)(=O)c1ccc(NC[C@H]2COCCO2)c([N+](=O)[O-])c1)c1ccc(N2CCN(CC3=C(c4ccc(Cl)cc4)CC4(CCC4)CC3)CC2)cc1Oc1cnc2[nH]ccc2c1 when you can.
-- reply 3.33

###

- methodDescription: Pharmacokinetic test in mice (Effect Example 3)
- Assay type: in vivo
- assayContext: mouse, plasma, po; male mice, single gavage, 25 mg/kg
measuredParameter: Cmax
Please format your answer as a value with the unit trailing.

-- ask Dear colleague, please send me the reported Cmax for O=C(NS(=O)(=O)c1ccc(NC[C@H]2COCCO2)c([N+](=O)[O-])c1)c1ccc(N2CCN(CC3=C(c4ccc(Cl)cc4)CC4(CCC4)CC3)CC2)cc1Oc1cnc2[nH]ccc2c1 when you can.
-- reply 82.2 ng/mL

###

- methodDescription: Equilibrium solubility test
- Assay type: physicochemical
- assayContext: 37 °C, thermodynamic from solid; FeSSIF, 24 h
measuredParameter: solubility at 24 h (µg/mL)
Lab book: enter the figure in µg/mL, no units written.

-- ask Dear colleague, please send me the reported solubility at 24 h for O=C(NS(=O)(=O)c1ccc(NC[C@H]2COCCO2)c([N+](=O)[O-])c1)c1ccc(N2CCN(CC3=C(c4ccc(Cl)cc4)CC4(CCC4)CC3)CC2)cc1Oc1cnc2[nH]ccc2c1 when you can.
-- reply 0.5

###

- methodDescription: Equilibrium solubility test
- Format: physicochemical
- assayContext: 37 °C, thermodynamic from solid; FaSSIF, 2 h
measuredParameter: solubility at 2 h
Please format your answer as a value with the unit trailing.

-- ask Dear colleague, please send me the reported solubility at 2 h for O=C(NS(=O)(=O)c1ccc(NC[C@H]2COCCO2)c([N+](=O)[O-])c1)c1ccc(N2CCN(CC3=C(c4ccc(Cl)cc4)CC4(CCC4)CC3)CC2)cc1Oc1cnc2[nH]ccc2c1 when you can.
-- reply 1.3 µg/mL

###

- methodDescription: Pharmacokinetic test in mice (Effect Example 3)
- Type: in vivo
- assayContext: mouse, plasma, po; male mice, single gavage, 25 mg/kg
measuredParameter: AUC(0-inf) (ng·h/mL)
Lab book: enter the figure in ng·h/mL, no units written.

-- ask Dear colleague, please send me the reported AUC(0-inf) for O=C(NS(=O)(=O)c1ccc(NC[C@H]2COCCO2)c([N+](=O)[O-])c1)c1ccc(N2CCN(CC3=C(c4ccc(Cl)cc4)CC4(CCC4)CC3)CC2)cc1Oc1cnc2[nH]ccc2c1 [API] when you can.
-- reply 637

###

- methodDescription: Pharmacokinetic test in mice (Effect Example 3)
- Assay type: in vivo
- assayContext: mouse, plasma, po; male mice, single gavage, 100 mg/kg
measuredParameter: Cmax
Please format your answer as a value with the unit trailing.

-- ask Dear colleague, please send me the reported Cmax for O=C(NS(=O)(=O)c1ccc(NC[C@H]2COCCO2)c([N+](=O)[O-])c1)c1ccc(N2CCN(CC3=C(c4ccc(Cl)cc4)CC4(CCC4)CC3)CC2)cc1Oc1cnc2[nH]ccc2c1 [API] when you can.
-- reply 105 ng/mL

###

- methodDescription: Pharmacokinetic test in mice (Effect Example 3)
- Assay type: in vivo
- assayContext: mouse, plasma, po; male mice, single gavage, 100 mg/kg
measuredParameter: half-life
Please format your answer as a value with the unit trailing.

-- ask Dear colleague, please send me the reported half-life for O=C(NS(=O)(=O)c1ccc(NC[C@H]2COCCO2)c([N+](=O)[O-])c1)c1ccc(N2CCN(CC3=C(c4ccc(Cl)cc4)CC4(CCC4)CC3)CC2)cc1Oc1cnc2[nH]ccc2c1 [API] when you can.
-- reply 3.7 h

###

- methodDescription: Equilibrium solubility test
- Assay type: physicochemical
- assayContext: 37 °C, thermodynamic from solid; FeSSIF, 2 h
measuredParameter: solubility at 2 h (µg/mL)
Lab book: enter the figure in µg/mL, no units written.

-- ask Dear colleague, please send me the reported solubility at 2 h for O=C(NS(=O)(=O)c1ccc(NC[C@H]2COCCO2)c([N+](=O)[O-])c1)c1ccc(N2CCN(CC3=C(c4ccc(Cl)cc4)CC4(CCC4)CC3)CC2)cc1Oc1cnc2[nH]ccc2c1 when you can.
-- reply 2.5
